target: T1, HER2-ECD-His protein (human, UniProt P04626 23-652); assay: SPR (Biacore 3000), HER2-ECD-His amine-coupled to CM5, periplasmic extract as analyte
T1 construct: extracellular domain; not shown: His tag
Short version: Degree of reduction (Fold) of koff against hz1E11 at least 4 fold is class 1, less is class 0.

Problem: Does the binder M3-L-A1-3-2C2 (antibody, V domains shown, hz1E11 library clone, periplasmic extract) VH: EVQLVESGGGLVQPGGSLRLSCAASGFTFSSYTMSWVRQAPGKGLEWVAYISNGGGSTYYPDTVKGRFTISRDNAKNSLYLQMNSLRAEDTAVYYCARHLGGTASFDYWGQGTLVTVSS VL: DIQMTQSPSSLSASVGDRVTITCLASQTIGTWLAWYQQKPGKAPKLLIYVATSLADGVPSRFSGSGSGTDFTLTISSLQPEDFATYYCQQLGFIPWTFGQGTKVEIK have recorded Degree of reduction (Fold) of koff against hz1E11 that is 4 fold or more?
Result: class 0

Problem: Thanks! And M3-L-A1-3-1A12 (hz1E11-133), periplasmic extract (antibody, V domains shown, Library clone expressed in bacteria with IPTG, tested as periplasmic extract; LCDR3 QQNAYAPWT) VH: EVQLVESGGGLVQPGGSLRLSCAASGFTFSSYTMSWVRQAPGKGLEWVAYISNGGGSTYYPDTVKGRFTISRDNAKNSLYLQMNSLRAEDTAVYYCARHLGGTASFDYWGQGTLVTVSS VL: DIQMTQSPSSLSASVGDRVTITCLASQTIGTWLAWYQQKPGKAPKLLIYVATSLADGVPSRFSGSGSGTDFTLTISSLQPEDFATYYCQQNAYAPWTFGQGTKVEIK ?
Result: class 1

Problem: Then this binder: M1-L-A1-3-1C3 (hz1E11-3), periplasmic extract (antibody, V domains shown, Library clone expressed in bacteria with IPTG, tested as periplasmic extract; LCDR3 DQMYSTPWT) VH: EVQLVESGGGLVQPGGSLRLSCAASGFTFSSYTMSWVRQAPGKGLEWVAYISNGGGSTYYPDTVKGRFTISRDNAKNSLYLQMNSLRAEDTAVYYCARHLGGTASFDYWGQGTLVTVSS VL: DIQMTQSPSSLSASVGDRVTITCLASQTIGTWLAWYQQKPGKAPKLLIYVATSLADGVPSRFSGSGSGTDFTLTISSLQPEDFATYYCDQMYSTPWTFGQGTKVEIK
Result: class 1

Problem: Then this binder: M3-LH-A1-2-2F4 (antibody, name in Kabat numbering, V domains shown, hz1E11 library clone, periplasmic extract) VH: EVQLVESGGGLVQPGGSLRLSCAASGFTFSSYTMSWVRQAPGKGLEWVAYISNGGGSTYYPDTVKGRFTISRDNAKNSLYLQMNSLRAEDTAVYYCARNLGGTASFDYWGQGTLVTVSS VL: DIQMTQSPSSLSASVGDRVTITCLASQTIGTWLAWYQQKPGKAPKLLIYVATSLADGVPSRFSGSGSGTDFTLTISSLQPEDFATYYCQQLVRIPWTFGQGTKVEIK
Result: class 0

Problem: // next record M3-LH-A3-3-2F1 (antibody, V domains shown, hz1E11 library clone, periplasmic extract) VH: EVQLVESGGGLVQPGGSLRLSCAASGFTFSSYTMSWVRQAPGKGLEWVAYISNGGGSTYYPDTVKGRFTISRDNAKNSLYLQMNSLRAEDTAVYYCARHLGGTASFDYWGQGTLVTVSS VL: DIQMTQSPSSLSASVGDRVTITCLASQTIGTWLAWYQQKPGKAPKLLIYVATSLADGVPSRFSGSGSGTDFTLTISSLQPEDFATYYCQQNAYNPWTFGQGTKVEIK
Result: class 1
